solubility in G1/S (log2) values for the sequences below.
test system: HeLa Kyoto; assay: solubility in G1/S (NP-40 vs SDS abundance) (log2 ratio); higher = more soluble; conditions: cell cycle stage: G1/S
Form rule: numeric answer, no unit written next to it.

Worked examples, 3 sequences total:
[[record]]
chain_sequence = "MADPRVRQIKIKTGVVKRLVKEKVMYEKEAKQQEEKIEKMRAEDGENYDIKKQAEILQESRMMIPDCQRRLEAAYLDLQRILENEKDLEEAEEYKEARLVLDSVKLEA [TBCA]"
parameter_measured = "solubility in G1/S (log2)"
numeric_value = 0.241

[[record]]
chain_sequence = "MSVDPMTYEAQFFGFTPQTCMLRIYIAFQDYLFEVMQAVEQVILKKLDGIPDCDISPVQIRKCTEKFLCFMKGHFDNLFSKMEQLFLQLILRIPSNILLPEDKCKETPYSEEDFQHLQKEIEQLQEKYKTELCTKQALLAELEEQKIVQAKLKQTLTFFDELHNVGRDHGTSDFRESLVSLVQNSRKLQNIRDNVEKESKRLKIS [MIS12]"
parameter_measured = "solubility in G1/S (log2)"
numeric_value = -0.177

[[record]]
chain_sequence = "MGLAGVCALRRSAGYILVGGAGGQSAAAAARRYSEGEWASGGVRSFSRAAAAMAPIKVGDAIPAVEVFEGEPGNKVNLAELFKGKKGVLFGVPGAFTPGCSKTHLPGFVEQAEALKAKGVQVVACLSVNDAFVTGEWGRAHKAEGKVRLLADPTGAFGKETDLLLDDSLVSIFGNRRLKRFSMVVQDGIVKALNVEPDGTGLTCSLAPNIISQL [PRDX5]"
parameter_measured = "solubility in G1/S (log2)"
numeric_value = 0.582


Lab note: next sequence to report on.
# input Provide measured solubility in G1/S (log2) value, entry: MDIRPNHTIYINNMNDKIKKEELKRSLYALFSQFGHVVDIVALKTMKMRGQAFVIFKELGSSTNALRQLQGFPFYGKPMRIQYAKTDSDIISKMRGTFADKEKKKEKKKAKTVEQTATTTNKKPGQGTPNSANTQGNSTPNPQVPDYPPNYILFLNNLPEETNEMMLSMLFNQFPGFKEVRLVPGRHDIAFVEFENDGQAGAARDALQGFKITPSHAMKITYAKK [SNRPB2]
# output 0.221

* * *

tested on: HeLa Kyoto; assay: solubility in G1/S (NP-40 vs SDS abundance) (log2 ratio); higher = more soluble; conditions: cell cycle stage: G1/S
solubility in G1/S (log2) values for the sequences below.
Form rule: numeric answer, no unit written next to it.

Worked examples, 2 sequences total:
[[record]]
chain_sequence = "MSRRYDSRTTIFSPEGRLYQVEYAMEAIGHAGTCLGILANDGVLLAAERRNIHKLLDEVFFSEKIYKLNEDMACSVAGITSDANVLTNELRLIAQRYLLQYQEPIPCEQLVTALCDIKQAYTQFGGKRPFGVSLLYIGWDKHYGFQLYQSDPSGNYGGWKATCIGNNSAAAVSMLKQDYKEGEMTLKSALALAIKVLNKTMDVSKLSAEKVEIATLTRENGKTVIRVLKQKEVEQLIKKHEEEEAKAEREKKEKEQKEKDK [PSMA4]"
assayed_system = "HeLa Kyoto"
parameter_measured = "solubility in G1/S (log2)"
numeric_value = 0.45

[[record]]
chain_sequence = "MAQGLIEVERKFLPGPGTEERLQELGGTLEYRVTFRDTYYDTPELSLMQADHWLRRREDSGWELKCPGAAGVLGPHTEYKELTAEPTIVAQLCKVLRADGLGAGDVAAVLGPLGLQEVASFVTKRSAWKLVLLGADEEEPQLRVDLDTADFGYAVGEVEALVHEEAEVPTALEKIHRLSSMLGVPAQETAPAKLIVYLQRFRPQDYQRLLEVNSSRERPQETEDPDHCLG [THTPA]"
assayed_system = "HeLa Kyoto"
parameter_measured = "solubility in G1/S (log2)"
numeric_value = 0.0904


# input Report solubility in G1/S (log2) under test system HeLa Kyoto for MGNTLTCCVSPNASPKLGRRAGSAELYCASDIYEAVSGDAVAVAPAVVEPAELDFGEGEGHHLQHISDREMPEDLALESNPSDHPRASTIFLSKSQTDVREKRKSNHLNHVSPGQLTKKYSSCSTIFLDDSTVSQPNLRTTVKCVTLAIYYHIKNRDANRSLDIFDERSHPLTREKVPEEYFKHDPEHKFIYRFVRTLFSAAQLTAECAIVTLVYLERLLTYAEIDICPTNWKRIVLGAILLASKVWDDQAVWNVDYCQILKDITVEDMNEMERHFLELLQFNINVPASVYAKYYFDLRSLADDNNLNFLFAPLSKERAQNLEAISRLCEDKDLCRAAMRRSFSADNFIGIQRSKAILS [CCNYL1] .
# output -0.167

# input Report solubility in G1/S (log2) under test system HeLa Kyoto for MASSNTVLMRLVASAYSIAQKAGMIVRRVIAEGDLGIVEKTCATDLQTKADRLAQMSICSSLARKFPKLTIIGEEDLPSEEVDQELIEDSQWEEILKQPCPSQYSAIKEEDLVVWVDPLDGTKEYTEGLLDNVTVLIGIAYEGKAIAGVINQPYYNYEAGPDAVLGRTIWGVLGLGAFGFQLKEVPAGKHIITTTRSHSNKLVTDCVAAMNPDAVLRVGGAGNKIIQLIEGKASAYVFASPGCKKWDTCAPEVILHAVGGKLTDIHGNVLQYHKDVKHMNSAGVLATLRNYDYYASRVPESIKNALVP [BPNT1] .
# output 0.211

# input Report solubility in G1/S (log2) under test system HeLa Kyoto for MAAPAPGLISVFSSSQELGAALAQLVAQRAACCLAGARARFALGLSGGSLVSMLARELPAAVAPAGPASLARWTLGFCDERLVPFDHAESTYGLYRTHLLSRLPIPESQVITINPELPVEEAAEDYAKKLRQAFQGDSIPVFDLLILGVGPDGHTCSLFPDHPLLQEREKIVAPISDSPKPPPQRVTLTLPVLNAARTVIFVATGEGKAAVLKRILEDQEENPLPAALVQPHTGKLCWFLDEAAARLLTVPFEKHSTL [PGLS] .
# output 0.254

# input Report solubility in G1/S (log2) under test system HeLa Kyoto for MAKGRVAERSQLGAHHTTPVGDGAAGTRGLAAPGSRDHQKEKSWVEAGSARMSLLILVSIFLSAAFVMFLVYKNFPQLSEEERVNMKVPRDMDDAKALGKVLSKYKDTFYVQVLVAYFATYIFLQTFAIPGSIFLSILSGFLYPFPLALFLVCLCSGLGASFCYMLSYLVGRPVVYKYLTEKAVKWSQQVERHREHLINYIIFLRITPFLPNWFINITSPVINVPLKVFFIGTFLGVAPPSFVAIKAGTTLYQLTTAGEAVSWNSIFILMILAVLSILPAIFQKKLKQKFE [TMEM41B] .
# output -0.0617

# input Report solubility in G1/S (log2) under test system HeLa Kyoto for MSYMLPHLHNGWQVDQAILSEEDRVVVIRFGHDWDPTCMKMDEVLYSIAEKVKNFAVIYLVDITEVPDFNKMYELYDPCTVMFFFRNKHIMIDLGTGNNNKINWAMEDKQEMVDIIETVYRGARKGRGLVVSPKDYSTKYRY [TXNL4A] .
# output -0.625

# input Report solubility in G1/S (log2) under test system HeLa Kyoto for MAPRKGSSRVAKTNSLRRRKLASFLKDFDREVEIRIKQIESDRQNLLKEVDNLYNIEILRLPKALREMNWLDYFALGGNKQALEEAATADLDITEINKLTAEAIQTPLKSAKTRKVIQVDEMIVEEEEEEENERKNLQTARVKRCPPSKKRTQSIQGKGKGKRSSRANTVTPAVGRLEVSMVKPTPGLTPRFDSRVFKTPGLRTPAAGERIYNISGNGSPLADSKEIFLTVPVGGGESLRLLASDLQRHSIAQLDPEALGNIKKLSNRLAQICSSIRTHK [CDCA8] .
# output -1.64

# input Report solubility in G1/S (log2) under test system HeLa Kyoto for MDPPAVVAESVSSLTIADAFIAAGESSAPTPPRPALPRRFICSFPDCSANYSKAWKLDAHLCKHTGERPFVCDYEGCGKAFIRDYHLSRHILTHTGEKPFVCAANGCDQKFNTKSNLKKHFERKHENQQKQYICSFEDCKKTFKKHQQLKIHQCQHTNEPLFKCTQEGCGKHFASPSKLKRHAKAHEGYVCQKGCSFVAKTWTELLKHVRETHKEEILCEVCRKTFKRKDYLKQHMKTHAPERDVCRCPREGCGRTYTTVFNLQSHILSFHEESRPFVCEHAGCGKTFAMKQSLTRHAVVHDPDKKKMKLKVKKSREKRSLASHLSGYIPPKRKQGQGLSLCQNGESPNCVEDKMLSTVAVLTLG [GTF3A] .
# output -0.869

# input Report solubility in G1/S (log2) under test system HeLa Kyoto for METRYNLKSPAVKRLMKEAAELKDPTDHYHAQPLEDNLFEWHFTVRGPPDSDFDGGVYHGRIVLPPEYPMKPPSIILLTANGRFEVGKKICLSISGHHPETWQPSWSIRTALLAIIGFMPTKGEGAIGSLDYTPEERRALAKKSQDFCCEGCGSAMKDVLLPLKSGSDSSQADQEAKELARQISFKAEVNSSGKTISESDLNHSFSLTDLQDDIPTTFQGATASTSYGLQNSSAASFHQPTQPVAKNTSMSPRQRRAQQQSQRRLSTSPDVIQGHQPRDNHTDHGGSAVLIVILTLALAALIFRRIYLANEYIFDFEL [UBE2J1] .
# output 0.222

# input Report solubility in G1/S (log2) under test system HeLa Kyoto for MPGVKLTTQAYCKMVLHGAKYPHCAVNGLLVAEKQKPRKEHLPLGGPGAHHTLFVDCIPLFHGTLALAPMLEVALTLIDSWCKDHSYVIAGYYQANERVKDASPNQVAEKVASRIAEGFSDTALIMVDNTKFTMDCVAPTIHVYEHHENRWRCRDPHHDYCEDWPEAQRISASLLDSRSYETLVDFDNHLDDIRNDWTNPEINKAVLHLC [EMC8] .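 Further: HeLa Kyoto cells arrested at G1/S by double thymidine block, proteins quantified by TMT10plex mass spectrometry in mild NP-40 versus SDS extracts, three biological replicates.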
# output 0.269
